Molecular target: BTK (Homo sapiens, UniProt Q06187)
Sequence (Q06187 whole entry): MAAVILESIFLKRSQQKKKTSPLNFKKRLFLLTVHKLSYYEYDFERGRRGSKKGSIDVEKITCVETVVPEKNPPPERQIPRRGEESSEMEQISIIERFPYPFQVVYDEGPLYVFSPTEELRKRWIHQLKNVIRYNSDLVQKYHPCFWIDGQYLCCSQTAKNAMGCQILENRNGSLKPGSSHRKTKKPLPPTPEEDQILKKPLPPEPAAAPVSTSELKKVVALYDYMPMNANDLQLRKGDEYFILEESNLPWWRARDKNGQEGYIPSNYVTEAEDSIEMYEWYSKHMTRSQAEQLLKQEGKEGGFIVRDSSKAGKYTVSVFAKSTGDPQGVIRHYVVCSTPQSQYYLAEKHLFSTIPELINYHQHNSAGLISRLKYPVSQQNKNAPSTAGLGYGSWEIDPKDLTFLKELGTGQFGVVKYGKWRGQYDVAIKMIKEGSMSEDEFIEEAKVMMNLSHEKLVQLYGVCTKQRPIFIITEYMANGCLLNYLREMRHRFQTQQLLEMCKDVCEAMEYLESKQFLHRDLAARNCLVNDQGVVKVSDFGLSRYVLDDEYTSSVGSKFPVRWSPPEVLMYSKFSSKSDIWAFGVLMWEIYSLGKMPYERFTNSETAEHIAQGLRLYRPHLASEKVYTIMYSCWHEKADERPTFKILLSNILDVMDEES
Assay: BTK degradation in MOLM-14 cells (western blot)
Type: cell-based
Parameters: endogenous in cells; host or cells: MOLM-14
Conditions: Figure 2d, DMSO = 100 (mean)
Please provide measured Quantification anti-BTK / anti-β-actin (BTK level vs DMSO) for the entries that follow.
Hey, just send me the number, nothing else.

Q. Could you share which Quantification anti-BTK / anti-β-actin (BTK level vs DMSO) value was measured for Nc1cccc2c1C(=O)N(C1CCC(=O)NC1=O)C2=O (stereo not shown) [Pomalidomide, pomalidomide, reference compound] ?
A. 81.7787

Q. Could you share which Quantification anti-BTK / anti-β-actin (BTK level vs DMSO) value was measured for CC(C)(C)C=C(C#N)C(=O)N1CCCC(n2nc(-c3ccc(Oc4ccccc4)cc3)c3c(N)ncnc32)C1 (stereo not shown) [RC-Ctrl] ?
A. 83.2734

Q. Could you share which Quantification anti-BTK / anti-β-actin (BTK level vs DMSO) value was measured for CN(CCCNC(=O)CNc1cccc2c1C(=O)N(C1CCC(=O)NC1=O)C2=O)C(C)(C)C=C(C#N)C(=O)N1CCC[C@@H](n2nc(-c3ccc(Oc4ccccc4)cc3)c3c(N)ncnc32)C1 (stereo partly shown) [RC-1] ?
A. 23.0985

Q. Could you share which Quantification anti-BTK / anti-β-actin (BTK level vs DMSO) value was measured for CN1C(=O)CCC(N2C(=O)c3cccc(NCC(=O)NCCCN(C)C(C)(C)C=C(C#N)C(=O)N4CCCC(n5nc(-c6ccc(Oc7ccccc7)cc6)c6c(N)ncnc65)C4)c3C2=O)C1=O (stereo not shown) [RC-1-Me] ?
A. 91.1107
